test: Inhibition of gamma secretase assessed as reduction in Abeta42 production
pIC50: −log10 of the molar value.
Classes based on pIC50: class 1: < 6; class 2: ≥ 6 and < 7; class 3: ≥ 7

>>> category_label("COc1cc(/C=C/c2nc3n(n2)CCC[C@H]3c2ccccc2C(F)(F)F)ccc1-n1cnc(C)c1")
"class 3"
>>> category_label("CC(C)CCN1CC(c2cc(-c3ccc(C(F)(F)F)cc3)cc(C(CC(C)C)C(=O)O)c2)CCC1C(F)(F)F (centres undefined)")
"class 2"
>>> category_label("COc1cc(Nc2ccnn(Cc3ccc(F)cc3)c2=O)ccc1-n1cnc(C)c1")
"class 2"
>>> category_label("COc1cc(Nc2cccn3c(C)c(-c4ccc(F)cc4)nc23)ccc1-n1cnc(C)c1")
"class 3"
>>> category_label("CC(C)CC(C(=O)O)c1cc(-c2ccc(C(F)(F)F)cc2)cc(C2CCCC(C(F)(F)F)N2C)c1 (centres undefined)")
"class 2"
>>> category_label("C[C@@H](C(=O)O)c1ccc(-c2ccccc2)c(F)c1 [TARENFLURBIL]")
"class 1"

Source: ChEMBL document CHEMBL2150877
